Where these numbers come from: ChEMBL document CHEMBL4689842

# Population Normal (%) per entry
System: U2OS
Assay: Multiplex assay against U2OS
Type: toxicity, cell-based
Details: human, 12 h, 10 µM, compound concentration 10 uM, replicate 2
Numeric only. Scale: %

The following molecules have reported results that may help.
# molecule, tgt, resultUnit, measured
rows = [
    ("CC[C@@H]1C(=O)N(C)c2cnc(Nc3ccc(C(=O)NC4CCN(C)CC4)cc3OC)nc2N1C1CCCC1", "U2OS", "%", 91),
    ("N#Cc1cccc(C(=O)Nc2cc(-c3ccccc3)nn2-c2ccccc2)c1", "U2OS", "%", 90),
    ("Cc1ccc(NC(=O)Nc2cc(C(F)(F)F)ccc2F)cc1Nc1ccc2c(c1)NC(=O)/C2=C\\c1ccc[nH]1", "U2OS", "%", 88),
    ("CN1C(=O)[C@@H](NC(=O)c2cc3ccccc3[nH]2)N=C(c2ccccc2)c2ccccc21 [DEVAZEPIDE]", "U2OS", "%", 92),
    ("Cl.NC[C@@H]1O[C@H](C23CC4CC(CC(C4)C2)C3)Cc2c1ccc(O)c2O", "U2OS", "%", 89),
    ("CC(C)[C@H](CO)Nc1nc(Nc2cccc(Cl)c2)c2ncn(C(C)C)c2n1", "U2OS", "%", 92),
    ("CC(/C=C1\\SC(=S)N(CCCC(=O)Nc2ccc(C(=O)O)c(O)c2)C1=O)=C\\c1ccccc1", "U2OS", "%", 92),
]

The record that follows has no Population Normal (%) shown yet.
q: Entry under review: `C=CC(=O)Nc1cc(-n2c(=O)ccc3cnc4ccc(-c5ccc(NS(C)(=O)=O)cc5)cc4c32)ccc1C` . Reported Population Normal (%)?
a: 90
